FYI, the data here is from PubChem BioAssay AID720574.

target: Lysine-specific demethylase 4C (Homo sapiens) (UniProt Q9H3R0); assay: KDM4C H3K9me3 demethylation inhibition – biochemical, single concentration HTS, primary screen (AID 720574); conditions: GST-KDM4C 2-372, H3K9me3 peptide, LANCE TR-FRET; at 12.5 µM; active compounds read high
Sequence (Q9H3R0 2-372 limits assumed): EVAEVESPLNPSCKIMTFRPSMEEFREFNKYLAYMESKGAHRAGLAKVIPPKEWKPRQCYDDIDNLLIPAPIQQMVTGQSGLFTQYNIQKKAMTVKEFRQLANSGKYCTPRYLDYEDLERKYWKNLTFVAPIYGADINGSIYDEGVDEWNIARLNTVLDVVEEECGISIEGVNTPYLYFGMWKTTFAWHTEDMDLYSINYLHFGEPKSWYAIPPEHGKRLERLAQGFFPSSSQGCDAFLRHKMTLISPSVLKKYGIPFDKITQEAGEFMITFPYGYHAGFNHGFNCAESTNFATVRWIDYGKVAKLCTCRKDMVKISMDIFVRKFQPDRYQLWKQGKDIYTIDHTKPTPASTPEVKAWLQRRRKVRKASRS
About 140 (0.15%) of roughly 96,000 compounds were called active. The full list was thinned out, with actives kept by preference.
readout: inhibition (%)
The response must be a number in % with no trailing unit.

Lookup result for O=C(c1ccccn1)N1CC2(C1)[C@@H](c1ccccc1)[C@@H](CO)N2C(=O)C1CCC1 ; measured inhibition: -1.3

Lookup result for CN(C)CC(=O)Nc1ccc2c(c1)[C@H]1C[C@@H](CC(=O)NCc3ccc(Cl)cc3)O[C@@H](CO)[C@H]1O2 ; measured inhibition: -0.979

Lookup result for C[C@H]1CN([C@@H](C)CO)C(=O)c2cc(C#Cc3ccccc3F)cnc2O[C@H]1CN(C)C ; measured inhibition: 28.4

Next:
Lookup result for C[C@H]1CN([C@@H](C)CO)C(=O)c2cccc(NC(=O)CCCCCC(=O)Nc3ccccc3N)c2O[C@@H]1CN(C)C(=O)NC1CCCCC1 ; measured inhibition: 0.11

Lookup result for COc1ccc2c3c(n(C)c2c1)[C@@H](CO)N(C(=O)Nc1ccc(F)cc1)CC31CCN(C(=O)c2cccnc2)CC1 ; measured inhibition: -1.49

Lookup result for C[C@H](CO)N1C[C@H](C)[C@@H](CN(C)S(=O)(=O)c2ccccc2)Oc2ncc(C#Cc3ccccc3F)cc2C1=O ; measured inhibition: -3.49

Lookup result for CO[C@H]1CC[C@@H]2CCOc3c(C#N)cccc3C(=O)N(C)C[C@@H](OC)[C@H](C)C(=O)N(C)C[C@H]1O2 ; measured inhibition: 0.229

Lookup result for C[C@H]1CN([C@@H](C)CO)C(=O)c2cc(C#Cc3ccccc3F)cnc2O[C@@H]1CN(C)C(=O)C1CC1 ; measured inhibition: -1.28
